Tested on: UACC-62 melanoma
Test: NCI tumour cell line growth inhibition, 48 h
OBSERVATION_TYPE: TGI

[[record]]
compound = "NC(=O)[N+](=CC(=S)Nc1ccccc1Cl)C(N)=O"
observation_type = "TGI"
result = "> 100 µM"

[[record]]
compound = "O=[N+]([O-])c1cccc(Nc2nc(Cl)nc(Cl)n2)c1"
observation_type = "TGI"
result = "> 100 µM"

[[record]]
compound = "Cc1cc(-c2nc3c(F)cccc3s2)ccc1N"
observation_type = "TGI"
result = "> 100 µM"

[[record]]
compound = "COc1cccc(-c2nc3sccn3c2-c2ccnc(NCCCNS(=O)(=O)c3ccccc3)c2)c1"
observation_type = "TGI"
result = "5.08 µM"


Please look at the following compound next.
Please give the measured TGI for this compound: N#Cc1cc(S(=O)(=O)Nc2nc3cc(Cl)ccc3o2)c(SCc2ccccc2)cc1Cl
25.9 µM

----------
# TGI values compiled below
System: SK-MEL-28 melanoma
Assay: NCI tumour cell line growth inhibition, 48 h

Observe how each entry below is paired with its result.
[[record]]
compound = "Cc1cc(NN=C(c2ccc(O)cc2)c2ccc(O)cc2)c([N+](=O)[O-])cc1[N+](=O)[O-]"
result = "21.2 µM"

[[record]]
compound = "CC(C)OP(=O)(O)c1ncc(-c2ccc(C(F)(F)F)cc2)c(NC2CCCCCC2)n1"
result = "> 100 µM"

[[record]]
compound = "CN(C)CCN1CCc2c([nH]c3ccccc23)C1c1cccnc1 (stereo not given)"
result = "> 100 µM"


Please give the measured TGI for this compound: Cc1cn(C2CC(N=[N+]=[N-])C(COP(=O)(O)OCC3OC(n4cc(F)c(=O)[nH]c4=O)CC3O)O2)c(=O)[nH]c1=O (stereo not given)
> 100 µM

Please give the measured TGI for this compound: Cc1ccc(-c2cc(-c3ccc(Cl)cc3)nc(/N=C3\C(=O)N(CN(C)C)c4ccccc43)n2)cc1
> 100 µM

----------
Test system: KM12 colon
Test: NCI tumour cell line growth inhibition, 48 h
OBSERVATION_TYPE: GI50

Observe how each entry below is paired with its result.
[[record]]
compound = "CCOC1Oc2ccc(C)cc2C(=O)/C1=C\\Nc1ccc(S(N)(=O)=O)cc1 (centres undefined)"
observation_type = "GI50"
result = "12000 nM"

[[record]]
compound = "Nn1c(-c2ccc(Cl)cc2)nc2c(-c3ccc(Cl)cc3)nc3ccc(Cl)cc3c2c1=O"
observation_type = "GI50"
result = "> 100000 nM"

[[record]]
compound = "O=CN1N=C(c2cccc(Nc3ccnc4cc(Cl)ccc34)c2)CC1c1ccc(Cl)cc1 (centres undefined)"
observation_type = "GI50"
result = "591 nM"

[[record]]
compound = "C#C[C@]1(O)CC[C@H]2[C@@H]3CC=C4c5nc(N)sc5CC[C@]4(C)[C@H]3CC[C@@]21C"
observation_type = "GI50"
result = "3490 nM"

[[record]]
compound = "COc1ccc(C2=Nn3c(nnc3-n3nc(C)cc3C)SC2)cc1"
observation_type = "GI50"
result = "57 nM"

[[record]]
compound = "CCCCCC[C@H]1C(=O)O[C@H](C)[C@H](NC(=O)c2cccc(NC=O)c2OC)C(=O)O[C@@H](C)[C@@H]1OC(=O)CCC (tested in a mixture with another compound)"
observation_type = "GI50"
result = "9770 nM"

[[record]]
compound = "CN(C)c1ccc(-c2ccc(-c3ccc(C(=N)N)cn3)o2)cc1"
observation_type = "GI50"
result = "1430 nM"

[[record]]
compound = "CS(=O)(=O)Nc1cc(-c2ccc3ncnc(Nc4cccc(Cl)c4)c3c2)cnc1Cl"
observation_type = "GI50"
result = "1030 nM"


Please give the measured GI50 for this compound: Cc1cc(S(N)(=O)=O)c(S/C(=N\NS(=O)(=O)c2ccccc2)c2ccc(Cl)cc2)cc1Cl
> 100000 nM

Please give the measured GI50 for this compound: COc1cc(-c2nn(-c3cccc(NC(=O)CCNc4ccc(N5CCOCC5)cc4)c3)cc2-c2ccncc2)ccc1Cl
2440 nM

Please give the measured GI50 for this compound: N#[N+]c1ccc(Nc2ccccc2)cc1
3.11 µg/mL

Please give the measured GI50 for this compound: COCC(C(=O)OC1C/C=C/C=C/C(=O)OC(C(C)C(O)C(C)CCC(OC(=O)C(C)N(C)C)C(C)C(OC(C)=O)C(C)/C=C/N(C)C=O)C/C=C/C(OC)CC(C)C/C=C(\C)C(OC)CCC(C)C(O)C1C)N(C)C (centres undefined)
< 0.1 nM

Please give the measured GI50 for this compound: CCOC(=O)c1c(CN2CCN(C)CC2)nc2ccc(Cl)cc2c1-c1ccccc1
6760 nM

Please give the measured GI50 for this compound: COc1ccc(-c2cc(/C=C/C(=O)c3ccc(N)cc3)[nH]n2)cc1
1540 nM

----------
# TGI values compiled below
Tested on: KM20L2 colon
Assay: NCI tumour cell line growth inhibition, 48 h
Kindly provide the numeric value in µM only, without the unit symbol.

[[record]]
compound = "NCCCN=c1ccc2c3c1c(O)c1c(O)ccc(=O)c1c3[nH]n2CCNCCO"
quantitative_readout = 38.4

[[record]]
compound = "COc1cc([C@@H]2c3cc4c(cc3[C@@H](NCc3cccc(C#N)c3)C3COC(=O)[C@@H]32)OCO4)cc(OC)c1O (stereo partly specified)"
quantitative_readout = 4.63


Please look at the following compound next.
Please give the measured TGI for this compound: CCOC(=O)CCC(NC(=O)c1ccc(NC(OC)c2nc3cc(C(F)(F)F)ccc3nc2-c2ccccc2)cc1)C(=O)OCC (stereo unspecified)
27.2

----------
System: OVCAR-4 ovarian
Test: NCI tumour cell line growth inhibition, 48 h
OBSERVATION_TYPE: TGI (µM)
Kindly provide the numeric value in µM only, without the unit symbol.

[[record]]
record_smiles = "CCOc1nc2c(N3CCCC3)nc(N3CCNCC3)nc2nc1NCc1ccccc1"
quantitative_readout = 6.05

[[record]]
record_smiles = "O=C1Nc2ccc3c(c2/C1=C\\c1cc2c(cc1Br)OCO2)OCO3"
quantitative_readout = 5.14

[[record]]
record_smiles = "O=[N+]([O-])c1cccc2nccc(NCCN3CCOCC3)c12"
quantitative_readout = 25.6


Please look at the following compound next.
Please give the measured TGI for this compound: CN=c1sc2nc(C#N)c(C#N)nc2n1C
49.1

----------
# GI50 values compiled below
Tested on: HCT-116 colon
Test: NCI tumour cell line growth inhibition, 48 h

Observe how each entry below is paired with its result.
[[record]]
compound = "CCc1ccc2c(c1)N(CCO)C1=C(C(=O)OC1)C2c1cc(OC)c(OC)c(OC)c1 (stereo not drawn)"
result = "0.188 µM"

[[record]]
compound = "C[As](C)SC1OCC(O)C(O)C1O (stereo not drawn)"
result = "0.244 µM"

[[record]]
compound = "CC1(C)C2CCC13C(=O)C1OC3(C2)C2C(=O)c3c(ccc4c3ccc3ccccc34)C(=O)C12 (stereo not drawn)"
result = "> 36.9 µM"

[[record]]
compound = "CN(C)c1ccc(-c2ccc(-c3ccc(C(=N)N)cn3)o2)cc1"
result = "1.47 µM"

[[record]]
compound = "Cc1ccc(C2CC(c3ccc(Nc4ccnc5cc(Cl)ccc45)cc3)=NN2C=O)cc1 (stereo not drawn)"
result = "25.2 µM"


Lookup: GI50 / HCT-116 colon / CCOC1Oc2ccc(C)cc2C(=O)/C1=C\Nc1ccc(S(N)(=O)=O)cc1 (stereo not drawn)
6.62 µM

Lookup: GI50 / HCT-116 colon / COc1cc2c3cc1Oc1c(OC)c(OC)cc4c1C(Cc1ccc(O)c(c1)Oc1ccc(cc1)CC3N(C)CC2)N(C)CC4 (stereo not drawn)
5.56 µM

Lookup: GI50 / HCT-116 colon / CCCCCC[C@H]1C(=O)O[C@H](C)[C@H](NC(=O)c2cccc(NC=O)c2OC)C(=O)O[C@@H](C)[C@@H]1OC(=O)CCC (tested in a mixture with another compound)
9.89 µM

----------
Test system: K-562 leukemia
Test: NCI tumour cell line growth inhibition, 48 h
OBSERVATION_TYPE: TGI

Observe how each entry below is paired with its result.
[[record]]
compound = "Nc1ccccc1C(=O)N=Nc1c(O)[nH]c2ccccc12"
test_target = "K-562 leukemia"
result = "> 100 µM"

[[record]]
compound = "CCOC(=O)/C(=C\\c1ccc2ccccc2c1)P(=O)(OCC)OCC"
test_target = "K-562 leukemia"
result = "50.8 µM"

[[record]]
compound = "O=[N+]1[C@H](c2ccccc2)[C@H](c2ccccc2)N1[O-]"
test_target = "K-562 leukemia"
result = "> 100 µM"


Please give the measured TGI for this compound: Cc1ccc(S(=O)(=O)N/N=C2/CCC3(O)CC2(C)CCC2[C@H]3CC2(C)C)cc1 (some centres undefined)
90.7 µM

Please give the measured TGI for this compound: NC(=O)/C(=C/n1cnc(-c2cc(C(F)(F)F)cc(C(F)(F)F)c2)n1)c1cncnc1
38.7 µM

Please give the measured TGI for this compound: O=C(Cn1c2ccc(Br)cc2c2nc3ccccc3nc21)Nc1ccccc1
> 100 µM

Please give the measured TGI for this compound: O=C1c2c(Br)sc(Br)c2[C@@H](O)[C@H]1O
> 36.8 µM

Please give the measured TGI for this compound: CC(Cn1c2c(c3cc(O)ccc31)CCc1ccc(O)cc1-2)N(C)C (centres undefined)
> 100 µM

Please give the measured TGI for this compound: COc1ccccc1C(=O)N(Cc1ccccc1)c1ccc(Cl)c(C(=O)OC(C)C)c1
> 100 µM

Please give the measured TGI for this compound: COc1ccccc1N/C(SCc1ccccc1)=C(/C(Cl)=C(Cl)Cl)[N+](=O)[O-]
57.9 µM

Please give the measured TGI for this compound: CC1=CCC(C(C)(C)NC(=O)c2ccccc2)C/C1=N/O (centres undefined)
> 100 µM

Please give the measured TGI for this compound: CC(C)OP(=O)(OC(C)C)C(C)(C)O
> 100 µM

Please give the measured TGI for this compound: O=C1Oc2ccccc2C(=O)/C1=C/N1C(=O)CNC1=S
> 100 µM

Please give the measured TGI for this compound: CCCCOC/N=C(/N)NC#N
> 100 µM

Please give the measured TGI for this compound: COc1ccc2nc3ccc(OC)cc3c(SCCCl)c2c1
> 46.5 µM

Please give the measured TGI for this compound: CCOC(=O)CCC(NC(=O)c1ccc(NC(OC)c2nc3cc(C(F)(F)F)ccc3nc2-c2ccccc2)cc1)C(=O)OCC (centres undefined)
> 26.6 µM

Please give the measured TGI for this compound: Nc1ncc2ncn(C3CCC(CO)O3)c2n1 (centres undefined)
> 100 µM
